test system: K4 kissing-loop RNA reporter; test: apparent KD of K4 kissing-loop reporter; higher = weaker reporter binding; conditions: Eterna round: R107; input ligand: tryptophan 2.4 mM

[
  {
    "Biosequence": "UUUCGGUUCUGAGGAUAUUCGGACAAAUAUAGUGAUGUUGUAUAAGGAGGAGGGUGUUGGCAGUGCGGAGAAGGCAGACCAGGAU [ExFMNB.W]",
    "apparent KD of K4 kissing-loop reporter": "546 nM"
  },
  {
    "Biosequence": "AAGCAGUUCUCAAAGAGUACUGCAGGACAGCAGGAUAUAGUGAUGUUGAGAAGGGCUGUCCCGUCUGCAUGAAACAUGCAGACGA [Simply curious]",
    "apparent KD of K4 kissing-loop reporter": "688 nM"
  },
  {
    "Biosequence": "GGGCAUGAUACGAUAAAAUAGUGGAGAGAUACCAGCGUUUUAGAUCGCCCUUGGCAGCUCUCGAGUGAUGUUCGGGUAGCUCUGA [Onedra]",
    "apparent KD of K4 kissing-loop reporter": "104 nM"
  },
  {
    "Biosequence": "AUGACUCAAUAGUGAGUGAUGUUCACUGGACGAGGACCGGUACGGCCGCCACUCGAGAGUGGUGGACACUGUGUCACUGAGUCAU [Tryp A Ex t1]",
    "apparent KD of K4 kissing-loop reporter": "496 nM"
  },
  {
    "Biosequence": "GGAGGGAUCUCGGCCGCCACUCGUGGGAAAUGGGCCUCAGGGAUAUAGUGAUGUUAUGUAAAGAAGAGGACCGGGAGAAGGAAGG [ExTryptoB.Dg]",
    "apparent KD of K4 kissing-loop reporter": "240 nM"
  },
  {
    "Biosequence": "GGAAUGCUGUAAGGAUAUCUCGGACGGUUACUCCGUUUCUCGCGUGUAAGAAUCUGAGUGAUGUUUAGAGAAGGUACGCUGGUUA [theeternabot_exclusion_KL_FMN_B_21]",
    "apparent KD of K4 kissing-loop reporter": "149 nM"
  }
]

###

Each entry below lists one item and its recorded apparent KD of K4 kissing-loop reporter value.
test system: K4 kissing-loop RNA reporter; test: apparent KD of K4 kissing-loop reporter; higher = weaker reporter binding; settings: Eterna round: R107; input ligand: tryptophan 2.4 mM

[
  {
    "Biosequence": "UCCUGCAAUCUGCCACGAAAGUGGAUUGAUACCAGAGUCGAAAGACUCCCUUGGCAGCGAGUGAUGUUCGAAGCAGGUAAAUAAA",
    "Unit of measure": "nM",
    "apparent KD of K4 kissing-loop reporter": 91.7
  },
  {
    "Biosequence": "UGAUACCAGACUGAUACCAGCUAGUGAUGUUAGCUGAUAAACAAACAGGCAAAGCCUGCUAGCCCUUGGCAGCAGUCUGGUAUCU [TheoBX 12 #SwitchBubble #StaticStem]",
    "Unit of measure": "nM",
    "apparent KD of K4 kissing-loop reporter": 202
  },
  {
    "Biosequence": "AGAAACUUGUAUACAGGGCAUGCCAGAGAUACCAGUCAAAUGGAAGGCCCUUGGCAGCUCAGGCGAGUGAUGUUCGCAGGCUGAC [Exclusion Theophylline A GF 20]",
    "Unit of measure": "nM",
    "apparent KD of K4 kissing-loop reporter": 105
  }
]

###

tested on: K4 kissing-loop RNA reporter; experiment: apparent KD of K4 kissing-loop reporter; higher = weaker reporter binding; settings: Eterna round: R107; input ligand: none;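 further: bound reporter read as fluorescence of individual clusters on recovered sequencing chips by microscopy, with normalized cluster intensities fitted with a binding model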
Listing: apparent KD of K4 kissing-loop reporter of selected sequences

[
  {
    "Biosequence": "CAGCAUCAGGUUCAAACUGCAUGUACUGAUACCAGUCUUAAGAUCGACCCUUGGCAGCAGCUCCCGAGUGAUGUUCGUAGCGAGC [theeternabot_exclusion_KL_Theo_A_41]",
    "Unit of measure": "nM",
    "apparent KD of K4 kissing-loop reporter": 356
  },
  {
    "Biosequence": "UGAUACCAGACUGAUACCAGCUAGUGAUGUUAGCUGAUAAACAAACAGGCAAAGCCUGCUAGCCCUUGGCAGCAGUCUGGUAUCU [TheoBX 12 #SwitchBubble #StaticStem]",
    "Unit of measure": "nM",
    "apparent KD of K4 kissing-loop reporter": 193
  },
  {
    "Biosequence": "UGCAGUGAUGUUGCUAUUUUUCUUGAUUAACGAGGACCGGUACGGCCGCCACUCGAUUUCUCUCUAAUCCAGUAUGUUGUUUGAU [whbob_EX_Tryp_A_t4]",
    "Unit of measure": "nM",
    "apparent KD of K4 kissing-loop reporter": 112
  },
  {
    "Biosequence": "GGUAGCAUGGCGGCCGCCACUACCUAGUGAUGUUAGGCUGUGGACAUAGGAGCAAAAUAAAUAUGUAGGACCGGGCCAUGCUACC",
    "Unit of measure": "nM",
    "apparent KD of K4 kissing-loop reporter": 121
  },
  {
    "Biosequence": "AGGUACAAAAGUACCGCUAGAUCCACGGAAGGAGCGCGCGAAAGCGCAGGUAGGUCGCCGGGCAGUGAUGUUGCCGGAUCUAGCA [Omei KL Arginine A SS A v7]",
    "Unit of measure": "nM",
    "apparent KD of K4 kissing-loop reporter": 126
  },
  {
    "Biosequence": "AGAAAAGGGACGAUCGUCGAGUUGCCAGAAGGAGCGGUAAUUUUACCAGGUAGGUCGCUGGCCCAGUGAUGUUGGGCUUUUAAGA [Biisinaor]",
    "Unit of measure": "nM",
    "apparent KD of K4 kissing-loop reporter": 125
  },
  {
    "Biosequence": "GGUUUAUAAGAGGAUACCAGUACAAAUAAAGUACAUUAAUAGUAGAGUGAUGUUCUAAAGUACCCUUGGCAGCUUAGAUUAAGUU [ExTheophylB.F]",
    "Unit of measure": "nM",
    "apparent KD of K4 kissing-loop reporter": 151
  },
  {
    "Biosequence": "AUUAUAAAGGCGGCCGCCACUAGUGAUGUUAGUGACUAUAGUAUUAUCUAUAGAAUAAAAUAAAAUAGGACCGGGCCAAAAUAUU [AstrosExTryB#2]",
    "Unit of measure": "nM",
    "apparent KD of K4 kissing-loop reporter": 525
  },
  {
    "Biosequence": "AUGUUGAGCGGAAGGAGCGGCUGAACCAGUGAUGUUGGUUAAUCCAAGUGAUGUUGGAAAAGCCAGGUAGGUCGCCGCUUUAUGU [Same State Arg B GF 2]",
    "Unit of measure": "nM",
    "apparent KD of K4 kissing-loop reporter": 902
  },
  {
    "Biosequence": "ACAAUGAUCAAAGGAUAUCGUAAGUUAUACAUCACGCGAUGAUUCAGAGGCGAGUGAUGUUUGUCUCGAGAAGGUUGGUACCGUC [theeternabot_exclusion_KL_FMN_B_37]",
    "Unit of measure": "nM",
    "apparent KD of K4 kissing-loop reporter": 521
  },
  {
    "Biosequence": "GGCGCCAGGAAAGGAUAUCUAAGUCUAUUAUCAAGAAUUGCCUCAAGAUCGGAGUGAUGUUCCCAGAGAGAAGGUUCUAUCCGCU [theeternabot_exclusion_KL_FMN_B_38]",
    "Unit of measure": "nM",
    "apparent KD of K4 kissing-loop reporter": 186
  },
  {
    "Biosequence": "GGUAGCAUGGCGGCCGCCACUUAGACUGGAUCGGAAACGAUCCAGUGAAAACGAGUGAUGUUCGUAAGGACCGGGCCAUGCUACC",
    "Unit of measure": "nM",
    "apparent KD of K4 kissing-loop reporter": 318
  },
  {
    "Biosequence": "GGCCGCAAGGCGAGCGCUCCCACUCCGGAAGGAGCGCCCGUAAGGGCAGGUAGGUCGCCGGAGUGAUGUUCCGGUGGAGGGCUCG [#2 Exclusion - Arginine A Attempt #17 (Inspired by Omei)]",
    "Unit of measure": "nM",
    "apparent KD of K4 kissing-loop reporter": 547
  },
  {
    "Biosequence": "UAAUGUGGCACAGGAUAUACUGAUUGGAGUGAUGUUCCAAACAUGAACAAGAGACUUUUACAAGAAGUAGAAGGGUGUUAGAUAU [Exclusion FMN B GF 19]",
    "Unit of measure": "nM",
    "apparent KD of K4 kissing-loop reporter": 223
  },
  {
    "Biosequence": "CCCGCGGCGGGAAACCGUCGCGGGAAGGAAGGAGCGGCGAAGAAGCCAGGUAGGUCGCCUAUUGACAGUGAUGUUGUUAUAUAGA [#11]",
    "Unit of measure": "nM",
    "apparent KD of K4 kissing-loop reporter": 160
  },
  {
    "Biosequence": "AAAGUUGAAAGUGAUACCAGACGAGUGAAGGGAAGUAAUUAAUUUGGAGUGAUGUUCCGCGUCCCUUGGCAGCAUUUUGUAAUUU [Exclusion Theophylline B GF 24]",
    "Unit of measure": "nM",
    "apparent KD of K4 kissing-loop reporter": 189
  },
  {
    "Biosequence": "AAACAUCACUGGGAGUGAUGUUCUCAGUGACGAGGACCGGUACGGCCGCCACUCGCGAGAGAUUUAGUCUAGUCUUGACUGCAUU [Excl Tryptophan A V12]",
    "Unit of measure": "nM",
    "apparent KD of K4 kissing-loop reporter": 264
  }
]
